# targetSystem: human D3R (Homo sapiens (Human))
# experimentSummary: Radioligand competition binding, [3H]N-methylspiperone, HEK293 membranes expressing human D3R
# recordedConditions: Table 1B; ratio of Ki values
Exercise: for every item that follows, state its recorded D2/D3.

# lookup: D2/D3 of CCc1cccc(N2CCN(CC(F)CCNC(=O)c3cc4ccccc4[nH]3)CC2)c1Cl (racemic)
257

Try the compound CCc1cc(Cl)c(OC)c(N2CCN(CC(F)CCNC(=O)c3cc4ccccc4[nH]3)CC2)c1 (racemic)
968

Try the compound CCc1cccc(N2CCN(CC(F)CCNC(=O)c3cc4ccccc4o3)CC2)c1Cl (racemic)
141

Try the compound CCc1cc(Cl)c(OC)c(N2CCN(CC(F)CCNC(=O)c3cc4ccccc4o3)CC2)c1 (racemic)
108

---

# targetSystem: human D3R (Homo sapiens (Human), UniProt P35462)
# Sequence (P35462 whole entry): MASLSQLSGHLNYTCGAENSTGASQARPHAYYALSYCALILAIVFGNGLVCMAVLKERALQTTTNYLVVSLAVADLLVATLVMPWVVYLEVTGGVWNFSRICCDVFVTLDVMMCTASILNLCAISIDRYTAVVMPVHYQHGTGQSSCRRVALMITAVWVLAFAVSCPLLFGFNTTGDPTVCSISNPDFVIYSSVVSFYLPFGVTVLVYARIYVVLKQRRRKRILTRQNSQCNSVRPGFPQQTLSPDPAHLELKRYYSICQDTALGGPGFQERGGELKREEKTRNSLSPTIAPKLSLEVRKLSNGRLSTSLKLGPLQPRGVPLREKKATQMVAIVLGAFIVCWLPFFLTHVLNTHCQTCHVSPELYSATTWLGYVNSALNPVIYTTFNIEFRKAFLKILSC
# experimentSummary: Radioligand competition binding, [3H]N-methylspiperone, HEK293 membranes expressing human D3R
# recordedConditions: Table 1B; [3H]-N-methylspiperone competition, 96-well plates; read-out: D3R Ki ± SEM
# Protocol: Binding at dopamine D2-like receptors was determined using previously described methods. […] Radioligand competition binding experiments were conducted using thawed membranes. […] Nonspecific binding was determined using 10 μM butaclamol (Sigma-Aldrich, St. Louis, Mo.) and total binding was determined with 30% DMSO vehicle. […] Reported Ki values were determined from least three independent experiments. […]
observedProperty: Ki (nM)
Could you give me the number in nM? Just the number is fine.

# lookup: Ki of CCc1cc(Cl)c(OC)c(N2CCN(C[C@H](O)CCNC(=O)c3cc4ccccc4[nH]3)CC2)c1 [(R)-29]
5.97

Try the compound CCc1cc(Cl)c(OC)c(N2CCN(C[C@@H](O)CCNC(=O)c3cc4ccccc4[nH]3)CC2)c1 [(S)-29]
33.4

Try the compound CCc1cccc(N2CCN(CC(F)CCNC(=O)c3cc4ccccc4o3)CC2)c1Cl (racemic)
2.09

Try the compound CCc1cccc(N2CCN(CC(F)CCNC(=O)c3cc4ccccc4[nH]3)CC2)c1Cl (racemic)
0.482

---

# targetSystem: human D4R (Homo sapiens (Human))
# Sequence (P21917 whole entry): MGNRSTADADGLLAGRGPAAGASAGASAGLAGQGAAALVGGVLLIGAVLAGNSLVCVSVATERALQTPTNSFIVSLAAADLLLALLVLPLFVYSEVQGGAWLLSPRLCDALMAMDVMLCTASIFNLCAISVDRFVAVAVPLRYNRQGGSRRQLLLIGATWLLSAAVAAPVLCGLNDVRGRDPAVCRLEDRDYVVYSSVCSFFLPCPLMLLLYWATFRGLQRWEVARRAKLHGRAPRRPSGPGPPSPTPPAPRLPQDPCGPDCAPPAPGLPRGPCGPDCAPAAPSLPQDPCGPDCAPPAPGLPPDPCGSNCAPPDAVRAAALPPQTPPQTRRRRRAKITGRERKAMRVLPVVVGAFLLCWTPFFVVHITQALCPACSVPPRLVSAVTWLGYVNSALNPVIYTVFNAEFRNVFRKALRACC
# experimentSummary: Radioligand competition binding, [3H]N-methylspiperone, HEK293 membranes expressing human D4R
# recordedConditions: Table 1A; [3H]N-methylspiperone; read-out: D4R Ki ± SEM
Classify: 1 when Ki is strictly less than 700 nM; 0 when Ki is not.

# TODO verify Ki < 700 nM strictly for this molecule: CCc1cccc(N2CCN(CCCCNC(=O)c3cn4ccccc4n3)CC2)c1Cl [Compound 22]
0

Try the molecule CCc1cc(Cl)c(OC)c(N2CCN(CC(O)CCNC(=O)c3cc4ccccc4o3)CC2)c1 (stereo not drawn) [Compound 31]
0

Try the molecule CCc1cccc(N2CCN(CCCCNC(=O)c3nc(C)c[nH]3)CC2)c1Cl [Compound 26]
1

Try the molecule CCc1cccc(N2CCN(CCC(O)CNC(=O)c3cc4ccccc4[nH]3)CC2)c1Cl (stereo not drawn) [Compound 40]
1

Try the molecule CCc1cccc(N2CCN(CC(O)CCNC(=O)c3cc4ccccc4o3)CC2)c1Cl (stereo not drawn) [Compound 21]
0

This collection of values is drawn from patent US11337971B2.
